Assay: Log D by shake flask method (octanol / PBS pH 7.4, HPLC)
Type: physicochemical
Conditions: octanol / PBS pH 7.4, shake flask; read-out: logD
Description: In order to classify the inventive compounds according to their lipophilicity, Log D values (distribution coefficient) were determined by means of the well-established shake flask method, measuring the partition of a compound between an octanol and phosphate-buffered saline (PBS, pH 7.4) by HPLC. Compounds with a moderate lipophilicity (Log D values from 0 to 3) are usually advantaged for oral absorption, being in balance between solubility and permeability. […]
Overview of recorded logD for various compounds

{"columns": ["compound", "logD"],
 "data": [
  ["CCNC(=O)C(=O)CC[C@H](NC(=O)c1cn(C)cn1)C(=O)Nc1cccn(CC(=O)NC23CC4CC(C)(CC(C)(C4)C2)C3)c1=O", "1 to 3"],
  ["CCC(CC)CNC(=O)Cn1cccc(NC(=O)[C@H](CCC(=O)C(=O)NC)NC(=O)c2cncn2C)c1=O [Ref. 1, reference compound]", "< 1"],
  ["CCNC(=O)C(=O)CC[C@H](NC(=O)c1ccc2c(c1)CC(=O)NC2)C(=O)Nc1cccn(CC(=O)NC2(C(=O)O)C3CC4CC2CC(C(F)(F)F)(C4)C3)c1=O (stereo partly drawn)", "< 1"],
  ["CCNC(=O)C(=O)CC[C@H](NC(=O)c1csnn1)C(=O)Nc1cccn(CC(=O)NC23CC(C2)C3)c1=O", "< 1"],
  ["CCNC(=O)C(=O)CC[C@H](NC(=O)c1cncn1C)C(=O)Nc1cccn(CC(=O)NC23CC4CC(CC(Cl)(C4)C2)C3)c1=O", "< 1"],
  ["CCNC(=O)C(=O)CC[C@H](NC(=O)c1snnc1C1CC1)C(=O)Nc1cccn(CC23CC4CC(CC(O)(C4)C2)C3)c1=O", "< 1"],
  ["CCNC(=O)C(=O)CC[C@H](NC(=O)[C@@H]1CCCCN1)C(=O)Nc1cccn(CC(=O)NC2C3CC4CC2CC(Cl)(C4)C3)c1=O (stereo partly drawn)", "1 to 3"],
  ["CCNC(=O)C(=O)CC[C@H](NC(=O)c1cn(C)nn1)C(=O)Nc1cccn(CC(=O)N[C@@H]2C[C@H]3CC[C@]2(C)C3(C)C)c1=O", "< 1"],
  ["CCNC(=O)C(=O)CC[C@H](NC(=O)c1cnc(Cl)n1C)C(=O)Nc1cccn(CC(=O)NC23CC4(C)CC(C)(CC(C)(C4)C2)C3)c1=O", "1 to 3"],
  ["CCNC(=O)C(=O)CC[C@H](NC(=O)c1cncn1C)C(=O)Nc1cccn(CC(=O)NC23CC4CC(C2)CC(C(=O)OC)(C4)C3)c1=O", "< 1"]
]}

Task: Read the entry "CCNC(=O)C(=O)CC[C@H](NC(=O)c1cncn1C)C(=O)Nc1cccn(CC(=O)NC23CC4CC(CC(O)(C4)C2)C3)c1=O" and write its reported logD.
Output: < 1

Task: Tell me measured logD for "CCNC(=O)C(=O)CC[C@H](NC(=O)c1cn(C2CCCC2)cn1)C(=O)Nc1cccn(CC(=O)NC23CC4CC(CC(CC)(C4)C2)C3)c1=O" please.
Output: 3 to 5

Task: Tell me measured logD for "CCNC(=O)C(=O)CC[C@H](NC(=O)c1c[nH]c(C(N)=O)c1)C(=O)Nc1cccn(CC(=O)NC23CC(C2)C3)c1=O" please.
Output: < 1

Task: Quote logD reported for "CCNC(=O)C(=O)CC[C@H](NC(=O)c1ccnn1C)C(=O)Nc1cccn(CC23CC4CC(CC(C4)C2)C3)c1=O" please.
Output: 1 to 3

Task: Hello, please tell me recorded logD for this one: CCNC(=O)C(=O)CC[C@H](NC(=O)c1ccc2ccoc2c1)C(=O)Nc1cccn(CC(=O)NC2C3CC4CC2CC(C(N)=O)(C4)C3)c1=O (stereo partly drawn)
Output: < 1

Task: Specify measured logD for "CCNC(=O)C(=O)CC[C@H](NC(=O)c1cnn(C)c1)C(=O)Nc1cccn(CC(=O)NC23CC4CC5C2C[C@@H]2C[C@H]5C(C4)[C@H]3C2)c1=O" .
Output: 1 to 3

Task: Give me measured logD, please, for this compound: CCNC(=O)C(=O)CC[C@H](NC(=O)c1c(C)noc1C)C(=O)Nc1cccn(CC(=O)NC2C3CCCC2CC3)c1=O (stereo partly drawn)
Output: < 1

Task: Read off the recorded logD for CCNC(=O)C(=O)CC[C@H](NC(=O)c1c[nH]c2ccccc12)C(=O)Nc1cccn(CC(=O)NC2C3CC4CC(C3)CC2C4)c1=O (stereo partly drawn)
Output: 1 to 3

* * *

biological target: recombinant human transglutaminase 2 (Homo sapiens); assay: Transglutaminase assay: incorporation of dansylcadaverine into dimethylcasein (DCC-assay); assay type: biochemical; details: recombinant human TG2 10 nM, dansylcadaverine/dimethylcasein; read-out: IC50 TG2
Sequence (P21980 whole entry): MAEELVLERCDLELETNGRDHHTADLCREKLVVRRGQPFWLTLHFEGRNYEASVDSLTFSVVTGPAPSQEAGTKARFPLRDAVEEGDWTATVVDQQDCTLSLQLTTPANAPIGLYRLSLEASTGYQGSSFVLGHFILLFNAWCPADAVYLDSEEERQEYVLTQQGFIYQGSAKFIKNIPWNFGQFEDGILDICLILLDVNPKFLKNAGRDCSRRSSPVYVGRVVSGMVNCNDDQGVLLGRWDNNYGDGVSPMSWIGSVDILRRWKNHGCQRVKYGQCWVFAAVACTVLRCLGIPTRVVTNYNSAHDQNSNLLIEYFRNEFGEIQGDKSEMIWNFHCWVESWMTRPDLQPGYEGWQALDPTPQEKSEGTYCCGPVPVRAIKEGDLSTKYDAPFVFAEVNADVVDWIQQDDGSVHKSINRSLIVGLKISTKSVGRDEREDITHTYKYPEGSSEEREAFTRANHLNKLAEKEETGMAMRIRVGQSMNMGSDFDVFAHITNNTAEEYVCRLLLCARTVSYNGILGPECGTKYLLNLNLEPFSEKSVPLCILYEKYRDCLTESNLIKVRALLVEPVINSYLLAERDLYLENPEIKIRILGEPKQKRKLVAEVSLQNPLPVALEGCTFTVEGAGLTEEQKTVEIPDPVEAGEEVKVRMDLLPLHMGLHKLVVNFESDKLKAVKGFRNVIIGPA
endpoint name: IC50

{"columns": ["compound", "endpoint name", "meas value"],
 "data": [
  ["CCNC(=O)C(=O)CC[C@H](NC(=O)c1cn[nH]n1)C(=O)Nc1cccn(CC(=O)NC2CC3CCC2CC3)c1=O (stereo partly drawn)", "IC50", "150 to 600 nM"]
]}

Continue with the next compound.
Task: Supply reported IC50 belonging to this compound: "CCNC(=O)C(=O)CC[C@H](NC(=O)c1cn(CC(C)C)cn1)C(=O)Nc1cccn(CC(=O)NC23CC4CC(CC(CC)(C4)C2)C3)c1=O"
Output: 600 to 3500 nM

* * *

experiment: Caco-2 permeability assay (CacoReady kit); assay type: in vitro ADME; settings: human
endpoint name: Papp

{"columns": ["compound", "endpoint name", "meas value"],
 "data": [
  ["CCNC(=O)C(=O)CC[C@H](NC(=O)c1cn(C)nn1)C(=O)Nc1cccn(CC(=O)N[C@@H]2C[C@H]3CC[C@]2(C)C3(C)C)c1=O", "Papp", "1 to 10 ×10⁻⁶ cm/s"],
  ["CCNC(=O)C(=O)CC[C@H](NC(=O)c1cc(Br)cs1)C(=O)Nc1cccn(CC(=O)NC2C3CC4CC(C3)CC2C4)c1=O (stereo partly drawn)", "Papp", "1 to 10 ×10⁻⁶ cm/s"],
  ["CCNC(=O)C(=O)CC[C@H](NC(=O)c1cc2c(Br)cccc2o1)C(=O)Nc1cccn(CC(=O)NC2C3CC4CC(C3)CC2C4)c1=O (stereo partly drawn)", "Papp", "1 to 10 ×10⁻⁶ cm/s"],
  ["CCNC(=O)C(=O)CC[C@H](NC(=O)c1noc(C)n1)C(=O)Nc1cccn(CC(=O)NC23CC(C2)C3)c1=O", "Papp", "< 1 ×10⁻⁶ cm/s"],
  ["CCNC(=O)C(=O)CC[C@H](NC(=O)c1nc(Br)cs1)C(=O)Nc1cccn(CC(=O)NC2C3CC4CC(C3)CC2C4)c1=O (stereo partly drawn)", "Papp", "1 to 10 ×10⁻⁶ cm/s"]
]}

Task: Report Papp for "CCNC(=O)C(=O)CC[C@H](NC(=O)c1cncn1C)C(=O)Nc1cccn(CC(=O)NC23CC4CC(C)(CC(C)(C4)C2)C3)c1=O"
Output: < 1 ×10⁻⁶ cm/s

Task: Please supply the value of reported Papp for the item CCNC(=O)C(=O)CC[C@H](NC(=O)c1snnc1CO)C(=O)Nc1cccn(CC2C3CC4CC(C3)CC2C4)c1=O (stereo partly drawn)
Output: < 1 ×10⁻⁶ cm/s

Task: Supply Papp value. Item: "CCNC(=O)C(=O)CC[C@H](NC(=O)c1cncn1C)C(=O)Nc1cccn(CC(=O)NC23CC4CC(CC(F)(C4)C2)C3)c1=O"
Output: < 1 ×10⁻⁶ cm/s

Task: Give the value of Papp reported for the following: CCNC(=O)C(=O)CC[C@H](NC(=O)c1cncc(C(=O)O)c1)C(=O)Nc1cccn(CC(=O)NC(C)C23CC4CC(CC(C4)C2)C3)c1=O (stereo partly drawn)
Output: < 1 ×10⁻⁶ cm/s

* * *

assay: Caco-2 permeability assay (CacoReady kit); type: in vitro ADME; details: human
Quick list: Papp per entry.

Known results for molecules:
{"columns": ["molecule", "Papp"],
 "data": [
  ["CCNC(=O)C(=O)CC[C@H](NC(=O)c1[nH]c2ccccc2c1C)C(=O)Nc1cccn(CC(=O)NC2C3CC4CC(C3)CC2C4)c1=O (some centres unmarked)", "1 to 10 ×10⁻⁶ cm/s"],
  ["CCNC(=O)C(=O)CC[C@H](NC(=O)c1sc(Br)cc1C)C(=O)Nc1cccn(CC(=O)NC2C3CC4CC(C3)CC2C4)c1=O (some centres unmarked)", "1 to 10 ×10⁻⁶ cm/s"],
  ["CCNC(=O)C(=O)CC[C@H](NC(=O)c1cnc(C(C)C)o1)C(=O)Nc1cccn(CC(=O)NC23CCC(C2)C3)c1=O", "1 to 10 ×10⁻⁶ cm/s"]
]}

Task: Tell me measured Papp for "CCNC(=O)C(=O)CC[C@H](NC(=O)c1oc2ccccc2c1C)C(=O)Nc1cccn(CC(=O)NC23CC(C2)C3)c1=O" please.
Output: 1 to 10 ×10⁻⁶ cm/s

Task: State its Papp for this molecule: "CCNC(=O)C(=O)CC[C@H](NC(=O)c1nccn1C)C(=O)Nc1cccn(CC(=O)NC23CC4CC(C)(CC(C)(C4)C2)C3)c1=O"
Output: < 1 ×10⁻⁶ cm/s

Task: Give Papp for the following molecule: CCNC(=O)C(=O)CC[C@H](NC(=O)c1cc2cccc(F)c2s1)C(=O)Nc1cccn(CC(=O)NC2C3CC4CC(C3)CC2C4)c1=O (some centres unmarked)
Output: 1 to 10 ×10⁻⁶ cm/s

Task: Given the molecule "CCNC(=O)C(=O)CC[C@H](NC(=O)c1ncn(C)n1)C(=O)Nc1cccn(CC(=O)N[C@@H]2C[C@@H]3C[C@H]([C@H]2C)C3(C)C)c1=O" , write its reported Papp.
Output: < 1 ×10⁻⁶ cm/s
